target: UniProtKB Q12809; experiment: Inhibition of hERG by fluorescence polarization assay
Measured EC50 values are reported for all entries that follow.
Report only the number, with the unit µM understood.

Use these answered entries as a reference point.
>  <Cpd Smiles>
COc1ccc2ncc(F)c(CCCN3CCN(C(=O)CSc4cccs4)C[C@@H]3C(=O)O)c2c1

>  <Test System>
UniProtKB Q12809

>  <Experimental Endpoint>
EC50

>  <Readout Unit>
µM

>  <Data Value>
7

$$$$
>  <Cpd Smiles>
COc1ccc2ncc(F)c(CCCN3CCN(C/C=C/c4cc(F)ccc4F)C[C@@H]3C(=O)O)c2c1

>  <Test System>
UniProtKB Q12809

>  <Experimental Endpoint>
EC50

>  <Readout Unit>
µM

>  <Data Value>
25

$$$$
>  <Cpd Smiles>
COc1ccc2ncc(F)c([C@@H](O)CC[C@@H]3CCN(CCSc4cccs4)C[C@@H]3C(=O)O)c2c1

>  <Test System>
UniProtKB Q12809

>  <Experimental Endpoint>
EC50

>  <Readout Unit>
µM

>  <Data Value>
24

$$$$
>  <Cpd Smiles>
COc1ccc2ncc(F)c(CCCN3CCN(CCSc4cccs4)C[C@H]3C(=O)O)c2c1

>  <Test System>
UniProtKB Q12809

>  <Experimental Endpoint>
EC50

>  <Readout Unit>
µM

>  <Data Value>
26

$$$$

input: Entry COc1ccc2ncc(F)c(CCCN3CCN(CCc4ccccc4)C[C@@H]3C(=O)O)c2c1 has what EC50?
output: 87

input: # iterate: COc1ccc2ncc(F)c(CCCN3CCN(CCSc4cccs4)C[C@@H]3C(=O)NC(=O)CC(=O)O)c2c1
output: 0.5

input: # iterate: COc1ccc2ncc(F)c(CCCN3CCN(CCCCc4ccccc4)C[C@@H]3C(=O)O)c2c1
output: 21

---

target: Voltage-gated inwardly rectifying potassium channel KCNH2 (Homo sapiens, UniProt Q12809); experiment: Inhibition of hERG by fluorescence polarization assay
Sequence (Q12809 whole entry): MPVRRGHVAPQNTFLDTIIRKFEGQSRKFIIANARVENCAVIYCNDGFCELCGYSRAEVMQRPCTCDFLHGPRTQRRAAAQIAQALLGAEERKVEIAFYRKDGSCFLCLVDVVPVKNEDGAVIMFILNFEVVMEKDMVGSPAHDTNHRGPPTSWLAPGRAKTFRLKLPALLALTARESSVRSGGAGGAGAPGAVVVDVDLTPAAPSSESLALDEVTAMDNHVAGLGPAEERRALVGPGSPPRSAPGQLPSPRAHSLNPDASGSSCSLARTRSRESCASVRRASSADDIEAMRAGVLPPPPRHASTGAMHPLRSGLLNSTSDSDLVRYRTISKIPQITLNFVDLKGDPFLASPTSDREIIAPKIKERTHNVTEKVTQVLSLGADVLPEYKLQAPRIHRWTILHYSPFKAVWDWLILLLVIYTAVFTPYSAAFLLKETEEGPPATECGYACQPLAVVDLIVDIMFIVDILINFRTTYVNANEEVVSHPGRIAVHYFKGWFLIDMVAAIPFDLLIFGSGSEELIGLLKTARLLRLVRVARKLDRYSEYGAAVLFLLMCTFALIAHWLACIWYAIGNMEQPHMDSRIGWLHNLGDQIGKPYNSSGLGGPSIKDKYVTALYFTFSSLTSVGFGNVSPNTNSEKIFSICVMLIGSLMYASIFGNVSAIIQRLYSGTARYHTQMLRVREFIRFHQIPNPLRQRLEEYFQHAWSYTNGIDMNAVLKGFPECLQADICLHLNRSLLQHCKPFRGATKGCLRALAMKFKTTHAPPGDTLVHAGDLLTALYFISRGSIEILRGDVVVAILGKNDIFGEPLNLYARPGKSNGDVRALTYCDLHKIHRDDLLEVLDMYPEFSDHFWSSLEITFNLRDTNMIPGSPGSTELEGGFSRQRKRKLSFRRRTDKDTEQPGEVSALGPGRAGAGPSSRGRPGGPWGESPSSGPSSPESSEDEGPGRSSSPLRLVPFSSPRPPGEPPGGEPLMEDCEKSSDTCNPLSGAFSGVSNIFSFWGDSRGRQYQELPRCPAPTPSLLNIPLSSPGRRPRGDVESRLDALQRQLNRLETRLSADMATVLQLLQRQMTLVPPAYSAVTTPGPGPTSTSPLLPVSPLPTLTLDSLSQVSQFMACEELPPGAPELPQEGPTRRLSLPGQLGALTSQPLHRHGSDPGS
Measured pEC50 values are reported for all entries that follow.
API: returns pEC50 as number; meaning -log10 of concentration in mol/L.

Use these answered entries as a reference point.
>  <Cpd Smiles>
COc1ccc2ncc(F)c(CCCN3CCN(CCSc4cccs4)C[C@@H]3C(N)=O)c2c1

>  <pEC50>
5.70

$$$$
>  <Cpd Smiles>
COC(=O)[C@H]1CN(CCSc2cccs2)CCN1CCCc1c(F)cnc2ccc(OC)cc12

>  <pEC50>
5.70

$$$$

Continue with the next molecule.
input: Entry COc1ccc2ncc(F)c(CCCN3CCN(Cc4ccccc4)C[C@@H]3C(=O)O)c2c1 has what pEC50?
output: 4.60

---

Measured IC50 values are reported for all entries that follow.
target: DNA gyrase (Escherichia coli, UniProt P0AES4+P0AES6); assay: Inhibition of Escherichia coli DNA gyrase by fluorescence based microtiter plate reader assay

>  <Cpd Smiles>
COc1ccc2ncc(F)c(CCCN3CCN(CCSc4cccs4)C[C@@H]3C(=O)O)c2c1

>  <Test System>
DNA gyrase (Escherichia coli, UniProt P0AES4+P0AES6)

>  <IC50>
5.4 µM

$$$$
>  <Cpd Smiles>
COC(=O)[C@H]1CN(CCSc2cccs2)CCN1CCCc1c(F)cnc2ccc(OC)cc12

>  <Test System>
DNA gyrase (Escherichia coli, UniProt P0AES4+P0AES6)

>  <IC50>
18.4 µM

$$$$
>  <Cpd Smiles>
COc1ccc2ncc(F)c(CCCN3CCN(C/C=C/c4cc(F)ccc4F)C[C@@H]3C(=O)O)c2c1

>  <Test System>
DNA gyrase (Escherichia coli, UniProt P0AES4+P0AES6)

>  <IC50>
6.46 µM

$$$$

Continue with the next compound.
input: Entry COc1ccc2ncc(F)c([C@@H](O)CC[C@@H]3CCN(CCSc4cccs4)C[C@@H]3C(=O)O)c2c1 has what IC50?
output: 3.9 µM
